System: CHIKV DRDE-07
Assay: In vitro screening against CHIKV (CPE inhibition and MTT cell viability)
Format: cell-based, chikungunya virus
Settings: Table S1; 72 hpi, MTT assay, CHIKV-infected Vero cells
READOUT_TYPE: % Cell viability (%)
One number for each entry, in %.

{"COMPOUND": "C=CCOC(=O)C1=C(C)NC(=O)NC1c1ccc(OC)cc1 (stereo not drawn)", "TARGET_UNDER_TEST": "CHIKV DRDE-07", "% Cell viability (%)": 12.66}
{"COMPOUND": "C/C(=N\\NC(=O)c1ccncc1)c1ccc(O)cc1", "TARGET_UNDER_TEST": "CHIKV DRDE-07", "% Cell viability (%)": 18.01}
{"COMPOUND": "O=C(NNC(=O)c1cccnc1)c1ccccc1 [DCR4, N'-benzoylnicotinohydrazide]", "TARGET_UNDER_TEST": "CHIKV DRDE-07", "% Cell viability (%)": 15}
{"COMPOUND": "O=[N+]([O-])c1ccc(N2CCCCC2)c([N+](=O)[O-])c1", "TARGET_UNDER_TEST": "CHIKV DRDE-07", "% Cell viability (%)": 25.21}
{"COMPOUND": "CC(=O)Cc1noc(-c2ccccc2)n1", "TARGET_UNDER_TEST": "CHIKV DRDE-07", "% Cell viability (%)": 17.32}

Give me % Cell viability for each of these compounds, listed below.
1. N#Cc1ccccc1N1CCOCC1
2. C#CCOC(=O)C1=C(C)NC(=O)NC1c1ccccc1 (stereo not drawn)
3. Cc1ccc(-c2cc(-c3ccc(O)cc3)nn2C(=O)c2cccnc2)cc1 [DCR56]
4. C/C(=N\NC(=O)c1ccncc1)c1ccccc1O [DCR49]
5. C/C(=N\NC(=O)c1ccncc1)c1c(O)ccc2ccccc12
6. COc1ccc(Br)cc1-c1cc(-c2ccc(O)cc2)nn1C(=O)c1cccnc1
7. O=C(c1cccnc1)n1nc(-c2ccc(O)cc2)cc1-c1ccccc1

(A)
[-3.98, 12.8, 24.2, 48.9, 30.87, 12.22, 17.69]

---

Provide the reported MNTD of each item.
System: Vero cells
Assay: Cytotoxicity MTT assay in Vero cells (MNTD, CC50)
Format: cell-based, African green monkey
Conditions: Table S1; Vero cells
One number for each entry, in µM.

Here are 8 molecules together with their reported answers.
{"MOLECULE": "COc1cc(/C=N/NC(=O)c2ccncc2)cc(OC)c1OC [DCR42]", "TARGET_UNDER_TEST": "Vero cells", "MNTD / µM": 31.25}
{"MOLECULE": "O=C(NNC(=O)c1cccnc1)c1ccc(Cl)cc1 [DCR6, N'-(4-chlorobenzoyl)nicotinohydrazide]", "TARGET_UNDER_TEST": "Vero cells", "MNTD / µM": 31.25}
{"MOLECULE": "CC(=O)Cc1noc(-c2cc(Cl)ccc2Cl)n1 [DCR83]", "TARGET_UNDER_TEST": "Vero cells", "MNTD / µM": 230.55}
{"MOLECULE": "CC1CN(c2ccc(C#N)c(Cl)c2)CC(C)N1 (stereo not drawn) [DCR148]", "TARGET_UNDER_TEST": "Vero cells", "MNTD / µM": 125}
{"MOLECULE": "O=C1NC(c2ccc(OC(F)(F)F)cc2)c2c(ccc3ccccc23)O1 (stereo not drawn) [DCR71]", "TARGET_UNDER_TEST": "Vero cells", "MNTD / µM": 43.42}
{"MOLECULE": "Nc1nc(N)c2c(F)cccc2n1 [DCR 135, 5-fluoro-quinazoline-2,4-diamine]", "TARGET_UNDER_TEST": "Vero cells", "MNTD / µM": 250}
{"MOLECULE": "CC1=C(C(=O)OCCN(C)C)C(c2ccc(C)cc2)NC(=O)N1 (stereo not drawn) [DCR74]", "TARGET_UNDER_TEST": "Vero cells", "MNTD / µM": 31.25}
{"MOLECULE": "O=C(c1cccnc1)n1nc(-c2ccc(O)cc2)cc1-c1ccc(Cl)cc1Cl [DCR54]", "TARGET_UNDER_TEST": "Vero cells", "MNTD / µM": 15.62}

Give me MNTD for each of these molecules, listed below.
1. C#CCOC(=O)C1=C(C)NC(=O)NC1c1cccc(F)c1 (stereo not drawn) [DCR95]
2. CCOc1ccc(C2c3c(ccc4ccccc34)Oc3ccc4ccccc4c32)cc1 [DCR114]
3. Fc1ccc(C2c3c(ccc4ccccc34)Oc3ccc4ccccc4c32)cc1 [DCR117]

(A)
1. 433.62
2. 31.25
3. 125

Give me MNTD for each of these molecules, listed below.
1. CCOc1ccc(/C=N/NC(=O)c2ccncc2)cc1OC [DCR32]
2. O=C(N/N=C/c1cccc([N+](=O)[O-])c1)c1cccnc1 [DCR19]
3. CC1(C)CC(=O)C2=C(C1)OC1=C(C(=O)CC(C)(C)C1)C2c1cccc(O)c1 [DCR123]
4. CC1CN(c2ccc(C(=N)NO)c(Cl)c2)CC(C)N1 (stereo not drawn) [DCR149]
5. O=C1NC(c2cccc(Cl)c2)c2c(ccc3ccccc23)O1 (stereo not drawn) [DCR68]
6. COc1ccc(C2NC(=O)NC(C)=C2C(=O)OCC(C)C)cc1 (stereo not drawn) [DCR99]
7. N#Cc1ccccc1N1CCOCC1 [DCR146, 2-Morpholin-4-yl-benzonitrile]
8. C/C(=N\NC(=O)c1cccnc1)c1ccc(O)cc1 [DCR45]

(A)
31.25
62.5
125
125
53.27
392.64
250
31.25

Give me MNTD for each of these molecules, listed below.
1. COc1cc(/C=N/NC(=O)c2cccnc2)cc(OC)c1OC [DCR27]
2. Nc1nc(N)c2cc(F)c(F)cc2n1 [DCR 138, 6,7-difluoro-quinazoline-2,4-diamine]
3. CC(=O)Cc1noc(-c2ccncc2)n1 [DCR82]

(A)
[31.25, 250, 125]

Give me MNTD for each of these molecules, listed below.
1. C#CCOC(=O)C1=C(C)NC(=O)NC1c1ccc(OCC)cc1 (stereo not drawn) [DCR94]
2. N#Cc1ccc(N2CCN(CCO)CC2)cc1N1CCN(CCO)CC1 [DCR150]

(A)
1: 198.83; 2: 62.5

These data points were gathered from paper PMC10674894.
